Parameter IC50: see the listing below.
Target: steroid sulphatase in placental microsomes (Homo sapiens)
Construct: Sulphatase-positive human placenta from normal term pregnancies; from tissue; host or cells: human term placenta (Obstetric Ward, St. Mary's Hospital, London), 2000 g supernatant of the homogenate
Sequence (P08842 22-583): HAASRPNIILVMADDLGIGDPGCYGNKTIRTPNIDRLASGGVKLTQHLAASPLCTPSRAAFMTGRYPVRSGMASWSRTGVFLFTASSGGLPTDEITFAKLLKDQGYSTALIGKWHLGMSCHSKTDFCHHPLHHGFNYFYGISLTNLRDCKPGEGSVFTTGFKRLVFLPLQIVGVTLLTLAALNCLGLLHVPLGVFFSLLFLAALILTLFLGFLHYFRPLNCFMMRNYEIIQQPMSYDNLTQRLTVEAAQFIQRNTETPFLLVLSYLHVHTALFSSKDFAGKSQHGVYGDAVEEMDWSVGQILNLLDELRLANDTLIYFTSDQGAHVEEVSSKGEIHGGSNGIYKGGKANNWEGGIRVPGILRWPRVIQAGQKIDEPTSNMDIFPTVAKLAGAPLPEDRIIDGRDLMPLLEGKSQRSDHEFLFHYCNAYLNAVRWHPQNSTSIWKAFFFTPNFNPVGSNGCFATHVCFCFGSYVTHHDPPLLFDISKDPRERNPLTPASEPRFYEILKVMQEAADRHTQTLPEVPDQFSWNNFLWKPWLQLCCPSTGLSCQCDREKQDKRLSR
Experiment: Inhibition of Steroid Sulphatase Activity in Placental Microsomes ([6,7-^3 H]oestrone-3-sulphate substrate)
Type: biochemical
Settings: 20 μM oestrone-3-sulphate, 100 μg/ml protein, 20 minutes, 37° C.; calculated IC50; Table IV; read-out: Steroid Sulphatase Activity in placental microsomes in the presence of oestrone-3-sulphonates (IC50)
Observable: IC50 (µM)

{"columns": ["Molecule", "Tested System", "Observable", "Unit Of Measure", "Recorded Number"],
 "data": [
  ["C[C@]12CC[C@@H]3c4ccc(OS(C)(=O)=O)cc4CC[C@H]3[C@@H]1CCC2=O [E1-3-MeS, oestrone-3-methylsulphonate]", "steroid sulphatase in placental microsomes (Homo sapiens)", "IC50", "µM", 205],
  ["Cc1ccc(S(=O)(=O)Oc2ccc3c(c2)CC[C@@H]2[C@@H]3CC[C@]3(C)C(=O)CC[C@@H]23)cc1 [E1-3-MePhS, oestrone-3-p-toluenesulphonate]", "steroid sulphatase in placental microsomes (Homo sapiens)", "IC50", "µM", 130]
]}
